- System Under Test: GST-Nv-NF-kB (Cys allele) (Nematostella vectensis, UniProt E5G601 2-411)
- Sequence: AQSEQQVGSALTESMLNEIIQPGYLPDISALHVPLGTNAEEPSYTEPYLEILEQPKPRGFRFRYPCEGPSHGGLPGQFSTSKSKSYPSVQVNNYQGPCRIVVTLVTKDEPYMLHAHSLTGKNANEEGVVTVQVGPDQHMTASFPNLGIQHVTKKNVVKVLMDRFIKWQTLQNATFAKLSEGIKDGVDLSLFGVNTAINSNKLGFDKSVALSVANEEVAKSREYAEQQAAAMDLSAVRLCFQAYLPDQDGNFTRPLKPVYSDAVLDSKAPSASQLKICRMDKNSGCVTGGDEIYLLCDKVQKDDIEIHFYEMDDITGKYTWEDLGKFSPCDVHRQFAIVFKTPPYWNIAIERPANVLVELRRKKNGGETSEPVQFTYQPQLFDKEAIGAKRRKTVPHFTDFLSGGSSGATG
- Protocol Notes: protein-binding microarray (PBM); PBM: ~300 nM protein, 6 mM HEPES pH 7.8, 80 mM KCl, 0.5 mM EDTA, 0.5 mM EGTA, 6% glycerol, 35 ng/ul poly-dIdC, 1% milk, 1 h, room temperature; Ap Aiptasia and Nv Nematostella (sea anemones) / Co Capsaspora / Aq Amphimedon (sponge) / Dm Drosophila / Hu human; RHD is the Rel homology domain; high values mean tight binding
- Experimental Context: dsDNA, one strand shown
For each of the sequences below, state its binding signal.

Report binding signal for every entry below.
1. CCGATTAACATCAGAAAAATCCCTGATGTTAATCGGGTCTTGATTCGCTTGACGCTGCTG
2. CCGATTAACATCAGGAAGGTCCCTGATGTTAATCGGGTCTTGATTCGCTTGACGCTGCTG
3. CCGATTAACATCAGGGTTCCCCATGATGTTAATCGGGTCTTGATTCGCTTGACGCTGCTG

1. 6.84 z-score
2. 2.97 z-score
3. 5.05 z-score

Report binding signal for every entry below.
1. CCGATTAACATCAGGAATCCCACTGATGTTAATCGGGTCTTGATTCGCTTGACGCTGCTG
2. CCGATTAACATCAGGGGTTCCACTGATGTTAATCGGGTCTTGATTCGCTTGACGCTGCTG

1.37 z-score
2.46 z-score
